- target.of.assay: Tyrosine-protein kinase Lck (Homo sapiens, UniProt P06239)
- Sequence (P06239 whole entry): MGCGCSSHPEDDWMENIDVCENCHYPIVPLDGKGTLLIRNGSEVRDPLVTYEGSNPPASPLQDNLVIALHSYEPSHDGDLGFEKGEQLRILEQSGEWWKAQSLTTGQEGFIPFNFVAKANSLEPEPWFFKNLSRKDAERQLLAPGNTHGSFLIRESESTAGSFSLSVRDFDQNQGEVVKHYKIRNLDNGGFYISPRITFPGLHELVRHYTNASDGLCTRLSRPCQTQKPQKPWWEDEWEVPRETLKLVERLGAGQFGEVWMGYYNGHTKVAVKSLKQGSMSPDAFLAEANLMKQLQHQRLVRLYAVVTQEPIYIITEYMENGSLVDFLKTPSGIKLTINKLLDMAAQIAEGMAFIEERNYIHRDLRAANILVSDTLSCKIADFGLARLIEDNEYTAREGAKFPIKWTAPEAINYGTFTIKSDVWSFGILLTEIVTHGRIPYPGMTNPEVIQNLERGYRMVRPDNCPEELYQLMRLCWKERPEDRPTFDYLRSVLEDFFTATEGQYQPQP

- smiles.code: "N#C/C(=C\\c1cc(O)ccc1O)C(N)=O"
  target.of.assay: "Tyrosine-protein kinase Lck (Homo sapiens, UniProt P06239)"
  IC50 / µM: 100

---

Items are presented alongside their recorded pIC50.
- target.of.assay: Epidermal growth factor receptor (Homo sapiens)
- Sequence (P00533 whole entry): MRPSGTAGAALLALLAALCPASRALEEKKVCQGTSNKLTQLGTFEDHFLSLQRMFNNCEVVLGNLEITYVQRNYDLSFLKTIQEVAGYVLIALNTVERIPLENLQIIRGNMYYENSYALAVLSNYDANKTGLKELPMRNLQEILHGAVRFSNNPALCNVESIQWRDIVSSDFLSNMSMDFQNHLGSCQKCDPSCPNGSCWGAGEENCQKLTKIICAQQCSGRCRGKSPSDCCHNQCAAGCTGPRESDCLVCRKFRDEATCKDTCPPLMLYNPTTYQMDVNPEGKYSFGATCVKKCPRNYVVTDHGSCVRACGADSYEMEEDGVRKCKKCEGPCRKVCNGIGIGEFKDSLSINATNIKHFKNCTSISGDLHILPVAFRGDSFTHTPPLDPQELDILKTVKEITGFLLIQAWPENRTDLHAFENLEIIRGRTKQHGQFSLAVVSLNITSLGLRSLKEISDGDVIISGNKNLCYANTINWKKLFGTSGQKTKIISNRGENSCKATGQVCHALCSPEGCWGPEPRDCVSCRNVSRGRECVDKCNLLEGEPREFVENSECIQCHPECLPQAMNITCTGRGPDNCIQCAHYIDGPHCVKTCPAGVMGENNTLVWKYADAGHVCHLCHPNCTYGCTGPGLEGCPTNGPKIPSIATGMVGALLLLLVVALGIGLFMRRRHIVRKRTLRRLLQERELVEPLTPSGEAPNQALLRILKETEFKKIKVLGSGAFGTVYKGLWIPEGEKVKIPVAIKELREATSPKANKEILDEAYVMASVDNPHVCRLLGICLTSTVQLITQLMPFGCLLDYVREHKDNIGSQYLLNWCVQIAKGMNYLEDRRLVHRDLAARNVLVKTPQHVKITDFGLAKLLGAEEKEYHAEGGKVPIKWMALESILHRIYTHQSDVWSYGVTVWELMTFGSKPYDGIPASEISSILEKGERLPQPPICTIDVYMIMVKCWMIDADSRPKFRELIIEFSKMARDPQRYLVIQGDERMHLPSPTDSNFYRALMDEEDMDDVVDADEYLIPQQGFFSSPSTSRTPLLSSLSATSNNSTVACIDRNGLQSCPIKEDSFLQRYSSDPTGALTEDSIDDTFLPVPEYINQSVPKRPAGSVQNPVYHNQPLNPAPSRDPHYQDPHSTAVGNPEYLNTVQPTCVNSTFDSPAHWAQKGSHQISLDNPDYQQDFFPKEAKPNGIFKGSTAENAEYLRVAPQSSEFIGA
pIC50: −log10 of the molar value.
assay.readout: pIC50

- smiles.code: "N#C/C(=C\\c1cc(O)ccc1O)C(N)=O"
  assay.readout: "pIC50"
  value.reported: 5.00
- smiles.code: "N#C/C(=C\\c1ccc(O)c(O)c1)C(N)=O"
  assay.readout: "pIC50"
  value.reported: 5.40
